In this section, each of the compounds is paired with its reported ALKALINE PHOSPHATASE.
Organism: Rattus norvegicus
Assay: DrugMatrix - Regimen: Daily Repeat
Assay type: toxicity, organism-based, Sprague-Dawley
Parameters: regimen Daily Repeat, gender Male, age 6-8 weeks
Details: in vivo, po, 10 mg/kg, 72 h, tissue Plasma, route oral GAVAGE, dose level Low, time 3 day, vehicle .5 % CMC
Provide only the numeric value, understood in u/L.

Could you share which ALKALINE PHOSPHATASE value was measured for CC(=O)O[C@]1(C(C)=O)CC[C@H]2[C@@H]3C=C(Cl)C4=CC(=O)CC[C@]4(C)[C@H]3CC[C@@]21C [CHLORMADINONE ACETATE] ?
475

For COc1c(C)c2c(c(O)c1C/C=C(\C)CCC(=O)OCCN1CCOCC1)C(=O)OC2 [MYCOPHENOLATE MOFETIL] , what is its reported ALKALINE PHOSPHATASE?
363.33

I am curious: what ALKALINE PHOSPHATASE value has been reported for O=C1CN=C(c2ccccc2)c2cc([N+](=O)[O-])ccc2N1 [NITRAZEPAM] ?
424.33

Look up ALKALINE PHOSPHATASE: NS(=O)(=O)c1cc2c(cc1Cl)NCNS2(=O)=O [HYDROCHLOROTHIAZIDE]
352

---

Species: Rattus norvegicus
Test: DrugMatrix - Regimen: Daily Repeat
Format: toxicity, organism-based, Sprague-Dawley
Parameters: regimen Daily Repeat, gender Male, age 6-8 weeks
Settings: in vivo, po, 10 mg/kg, 72 h, tissue Plasma, route oral GAVAGE, dose level Low, time 3 day, vehicle .5 % CMC
Measured Parameter: CREATINE PHOSPHOKINASE (u/L)
Give your result in u/L as a bare value.

compound=O=C1CN=C(c2ccccc2)c2cc([N+](=O)[O-])ccc2N1 measured_parameter="CREATINE PHOSPHOKINASE" unit_symbol=u/L reported_result=169

Find the recorded CREATINE PHOSPHOKINASE belonging to COc1c(C)c2c(c(O)c1C/C=C(\C)CCC(=O)OCCN1CCOCC1)C(=O)OC2 [MYCOPHENOLATE MOFETIL] and report it.
1302.67

Which CREATINE PHOSPHOKINASE is listed for CC(=O)O[C@]1(C(C)=O)CC[C@H]2[C@@H]3C=C(Cl)C4=CC(=O)CC[C@]4(C)[C@H]3CC[C@@]21C [CHLORMADINONE ACETATE] ?
138.33

Using the record for NS(=O)(=O)c1cc2c(cc1Cl)NCNS2(=O)=O [HYDROCHLOROTHIAZIDE] , report its CREATINE PHOSPHOKINASE.
517.67

---

Species: Rattus norvegicus
Test: DrugMatrix - Regimen: Daily Repeat
Type: toxicity, organism-based, Sprague-Dawley
Parameters: regimen Daily Repeat, gender Male, age 6-8 weeks
Settings: in vivo, po, 0 mg/kg, 120 h, tissue Blood, route oral GAVAGE, dose level Control, time 5 day, vehicle .5 % CMC
A collection of compounds and their measured ABSOLUTE LYMPHOCYTE

Worked examples, 4 compounds total:
compound="Cc1c(-c2ccccc2)oc2c(C(=O)OCCN3CCCCC3)cccc2c1=O [FLAVOXATE]" reported_result="14614 CELLS/uL"
compound="COc1c(C)c2c(c(O)c1C/C=C(\\C)CCC(=O)OCCN1CCOCC1)C(=O)OC2 [MYCOPHENOLATE MOFETIL]" reported_result="13283.17 CELLS/uL"
compound="CC(C)[C@H](N)C(=O)OCCOCn1cnc2c(=O)[nH]c(N)nc21 [VALACYCLOVIR]" reported_result="13632.83 CELLS/uL"
compound="COC(=O)c1ccc(O)cc1 [METHYLPARABEN]" reported_result="13871.67 CELLS/uL"

ABSOLUTE LYMPHOCYTE for CC(/C=C1\SC(=S)N(CC(=O)O)C1=O)=C\c1ccccc1 ?
13283.17 CELLS/uL

Look up ABSOLUTE LYMPHOCYTE: CC1(C)[C@H]2CC[C@]1(C)C(=O)C2 [(-)-CAMPHOR]
16020.5 CELLS/uL
